B1: RAB40B (parent)
chain: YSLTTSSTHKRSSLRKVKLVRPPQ

variants of: B1; assay: protein stability index of a GFP-peptide fusion (GPS, HEK-293T) (PSI 1-6); higher = more stable; details: c terminus: a fixed tail appended;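 further: lentivirally expressed fusions sorted by FACS into six bins by GFP to DsRed ratio, PSI derived from sequencing read proportions per bin multiplied by bin number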
protein stability index overview
Enter the number alone.

Some solved cases for reference:
R21H ... 2.9
V17D ... 3.33
V20E ... 3.56
Y1T ... 3.66
S7F ... 2.27
Q24C ... 2.45
Q24W ... 2.68
K16F ... 2.13

Requested read-out: protein stability index. Entry: `K10Q`
2.3

Requested read-out: protein stability index. Entry: `P22T`
3.32

Requested read-out: protein stability index. Entry: `R11D`
3.4
